Kd listing for selected compounds.
measurement_target: BCL6 BTB domain (biotin-thrombin-BCL6 amino acids 1-129) (Homo sapiens (Human))
State just the number; it will be interpreted in nM.

CO[C@@H](C)CN1CCN(c2cc(NC(=O)Cn3cc(-c4cc(C(N)=O)c(O)c(F)c4F)c4c(=O)n5c(nc43)CCC5)c(Cl)c(F)n2)[C@@H](C)C1: 14.4

Q) Checklist item: Kd tested on BCL6 BTB domain (biotin-thrombin-BCL6 amino acids 1-129) (Homo sapiens (Human)), entry C[C@H]1CN(C)CCN1c1cc(NC(=O)Cn2cc(-c3cc(C(N)=O)c(O)c(Cl)c3F)c3c(=O)n4c(nc32)CCC4)c(Cl)cn1 , value?
A) 111

Q) Checklist item: Kd tested on BCL6 BTB domain (biotin-thrombin-BCL6 amino acids 1-129) (Homo sapiens (Human)), entry C[C@H]1CN(C)CCN1c1cc(NC(=O)Cn2cc(-c3cc(C(N)=O)c(O)c(F)c3F)c3c(=O)n4c(nc32)COCC4)c(Cl)c(F)n1 , value?
A) 11

Q) Checklist item: Kd tested on BCL6 BTB domain (biotin-thrombin-BCL6 amino acids 1-129) (Homo sapiens (Human)), entry C[C@H]1CNCCN1c1cc(NC(=O)Cn2cc(-c3cc(C(N)=O)c(O)c4c3OCO4)c3c(=O)n4c(nc32)CCC4)c(Cl)c(F)n1 , value?
A) 0.7

Q) Checklist item: Kd tested on BCL6 BTB domain (biotin-thrombin-BCL6 amino acids 1-129) (Homo sapiens (Human)), entry C[C@H]1CNCCN1c1cc(NC(=O)Cn2cc(-c3cc(F)c(O)c(C(N)=O)c3)c3c(=O)n4c(nc32)CCC4)c(Cl)c(F)n1 , value?
A) 1.79

Q) Checklist item: Kd tested on BCL6 BTB domain (biotin-thrombin-BCL6 amino acids 1-129) (Homo sapiens (Human)), entry C[C@H]1CN(CC2CC2)CCN1c1cc(NC(=O)Cn2cc(-c3cc(C(N)=O)c(O)c(F)c3F)c3c(=O)n4c(nc32)CCC4)c(Cl)cn1 , value?
A) 25.9

Q) Checklist item: Kd tested on BCL6 BTB domain (biotin-thrombin-BCL6 amino acids 1-129) (Homo sapiens (Human)), entry NC(=O)c1cc(-c2cn(CC(=O)Nc3cc(N4CCOCC4)ccc3Cl)c3nc4n(c(=O)c23)CCC4)c(F)c(F)c1O , value?
A) 141

Q) Checklist item: Kd tested on BCL6 BTB domain (biotin-thrombin-BCL6 amino acids 1-129) (Homo sapiens (Human)), entry COc1c(-c2cn(CC(=O)Nc3cc(N4CCN(C)C[C@@H]4C)nc(F)c3Cl)c3nc4n(c(=O)c23)CCC4)cc(C(N)=O)c(O)c1F , value?
A) 94.7

Q) Checklist item: Kd tested on BCL6 BTB domain (biotin-thrombin-BCL6 amino acids 1-129) (Homo sapiens (Human)), entry COc1c(-c2cn(CC(=O)Nc3cc(N4CCN(C)C[C@@H]4C)nc(F)c3Cl)c3nc4n(c(=O)c23)CCC4)cc(C(N)=O)c(O)c1Cl , value?
A) 450

Q) Checklist item: Kd tested on BCL6 BTB domain (biotin-thrombin-BCL6 amino acids 1-129) (Homo sapiens (Human)), entry COc1c(-c2cn(CC(=O)Nc3cc(N4CCOC[C@@H]4C)nc(F)c3Cl)c3nc4n(c(=O)c23)CCC4)cc(C(N)=O)c(O)c1OC , value?
A) 255

Q) Checklist item: Kd tested on BCL6 BTB domain (biotin-thrombin-BCL6 amino acids 1-129) (Homo sapiens (Human)), entry C[C@H]1COCCN1c1cc(NC(=O)Cn2cc(-c3cc(C(N)=O)c(O)c(F)c3F)c3c(=O)n4c(nc32)CCCC4)c(Cl)c(F)n1 , value?
A) 29

Q) Checklist item: Kd tested on BCL6 BTB domain (biotin-thrombin-BCL6 amino acids 1-129) (Homo sapiens (Human)), entry COc1c(O)c(C(N)=O)cc(-c2cn(CC(=O)Nc3cc(N4CCN(C5COC5)C[C@@H]4C)ncc3Cl)c3nc4n(c(=O)c23)CCC4)c1F , value?
A) 26.6

Q) Checklist item: Kd tested on BCL6 BTB domain (biotin-thrombin-BCL6 amino acids 1-129) (Homo sapiens (Human)), entry C[C@H]1CNCCN1c1cc(NC(=O)Cn2cc(-c3cc(C(N)=O)c(O)c4c3OCO4)c3c(=O)n4c(nc32)CC(C)(C)C4)c(Cl)c(F)n1 , value?
A) 0.96

Q) Checklist item: Kd tested on BCL6 BTB domain (biotin-thrombin-BCL6 amino acids 1-129) (Homo sapiens (Human)), entry C[C@H]1COCCN1c1cc(NC(=O)Cn2cc(-c3cc(Cl)c(O)c(C(N)=O)c3)c3c(=O)n4c(nc32)CCC4)c(Cl)cn1 , value?
A) 4.48

Q) Checklist item: Kd tested on BCL6 BTB domain (biotin-thrombin-BCL6 amino acids 1-129) (Homo sapiens (Human)), entry CCN1CCN(c2cc(NC(=O)Cn3cc(-c4cc(Cl)c(O)c(C(N)=O)c4)c4c(=O)n5c(nc43)CCC5)c(Cl)c(F)n2)[C@@H](C)C1 , value?
A) 4.13

Q) Checklist item: Kd tested on BCL6 BTB domain (biotin-thrombin-BCL6 amino acids 1-129) (Homo sapiens (Human)), entry CC1CN(C)CC(C)N1c1cc(NC(=O)Cn2cc(-c3cc(C(N)=O)c(O)c(F)c3F)c3c(=O)n4c(nc32)CCC4)c(Cl)cn1 (stereo not shown) , value?
A) 25.6

Q) Checklist item: Kd tested on BCL6 BTB domain (biotin-thrombin-BCL6 amino acids 1-129) (Homo sapiens (Human)), entry CCN1CCN(c2cc(NC(=O)Cn3cc(-c4cc(C(N)=O)c(O)c(F)c4F)c4c(=O)n5c(nc43)CCC5)c(Cl)c(F)n2)[C@@H](C)C1 , value?
A) 7.97

Q) Checklist item: Kd tested on BCL6 BTB domain (biotin-thrombin-BCL6 amino acids 1-129) (Homo sapiens (Human)), entry CN(C)c1cc(NC(=O)Cn2cc(-c3cc(F)c(O)c(C(N)=O)c3)c3c(=O)n4c(nc32)CCC4)c(Cl)c(F)n1 , value?
A) 3.83

Q) Checklist item: Kd tested on BCL6 BTB domain (biotin-thrombin-BCL6 amino acids 1-129) (Homo sapiens (Human)), entry CC1Cc2nc3c(c(-c4cc(C(N)=O)c(O)c5c4OCO5)cn3CC(=O)Nc3cc(N4CCOC[C@@H]4C)ncc3Cl)c(=O)n2C1 (stereo partly shown) , value?
A) 2.14

Q) Checklist item: Kd tested on BCL6 BTB domain (biotin-thrombin-BCL6 amino acids 1-129) (Homo sapiens (Human)), entry C[C@H]1COCCN1c1cc(NC(=O)Cn2cc(-c3cc(C(N)=O)c(O)c(Cl)c3F)c3c(=O)n4c(nc32)CCC4)c(Cl)cn1 , value?
A) 111

Q) Checklist item: Kd tested on BCL6 BTB domain (biotin-thrombin-BCL6 amino acids 1-129) (Homo sapiens (Human)), entry C[C@H]1CN(C)CCN1c1cc(NC(=O)Cn2cc(-c3cc(F)c(O)c(C(N)=O)c3)c3c(=O)n4c(nc32)CCC4)c(Cl)c(F)n1 , value?
A) 1.5

Q) Checklist item: Kd tested on BCL6 BTB domain (biotin-thrombin-BCL6 amino acids 1-129) (Homo sapiens (Human)), entry COc1c(O)c(C(N)=O)cc(-c2cn(CC(=O)Nc3cc(N4CCN(C)C[C@@H]4C)ncc3Cl)c3nc4n(c(=O)c23)CCC4)c1F , value?
A) 49.6

Q) Checklist item: Kd tested on BCL6 BTB domain (biotin-thrombin-BCL6 amino acids 1-129) (Homo sapiens (Human)), entry C[C@H]1CN(C2COC2)CCN1c1cc(NC(=O)Cn2cc(-c3cc(C(N)=O)c(O)c(F)c3F)c3c(=O)n4c(nc32)CCC4)c(Cl)c(F)n1 , value?
A) 3.96

Q) Checklist item: Kd tested on BCL6 BTB domain (biotin-thrombin-BCL6 amino acids 1-129) (Homo sapiens (Human)), entry C[C@H]1COCCN1c1cc(NC(=O)Cn2cc(-c3cc(Cl)c(O)c(C(N)=O)c3)c3c(=O)n4c(nc32)CCC4)c(Cl)c(F)n1 , value?
A) 7.17

Q) Checklist item: Kd tested on BCL6 BTB domain (biotin-thrombin-BCL6 amino acids 1-129) (Homo sapiens (Human)), entry C[C@H]1COCCN1c1cc(NC(=O)Cn2cc(-c3cc(Cl)c(O)c(C(N)=O)c3)c3c(=O)n4c(nc32)CC(C)(C)C4)c(Cl)c(F)n1 , value?
A) 23.4
